# Measurement description: Inhibition of rilpivirine-resistant HIV1 NL4-3 reverse transcriptase E138K/M184I double mutant infected in human TZM-b1 cells after 2 days by bright Glo-luciferase reporter gene assay
# Assay type: cell-based
# Study conditions: Human immunodeficiency virus 1, NL4-3, TZM-b1, 48 h

# Smiles repr, Value units, EC50
data = [
    ("Cc1cc(/C=C/C#N)cc(C)c1Oc1cc(Nc2ccc(C#N)cc2)c(N)cc1C(=O)N1CC1", "nM", 16.7),
    ("Cc1cc(/C=C/C#N)cc(C)c1Oc1cc(Nc2ccc(C#N)cc2)c(N)cc1C(=O)NCCCl", "nM", 17.3),
    ("Cc1cc(/C=C/C#N)cc(C)c1Oc1cc(Nc2ccc(C#N)cc2)c(N)cc1C(=O)OCCC#N", "nM", 4.61),
    ("COCCOC(=O)c1cc(N)c(Nc2ccc(C#N)cc2)cc1Oc1c(C)cc(/C=C/C#N)cc1C", "nM", 9.54),
    ("Cc1cc(/C=C/C#N)cc(C)c1Nc1ccnc(Nc2ccc(C#N)cc2)n1", "nM", 2.38),
]

---

# Tested on: Human immunodeficiency virus
# Measurement description: Fold resistance, ratio of EC50 for rilpivirine-resistant HIV1 NL4-3 reverse transcriptase E138K/M184I double mutant to EC50 for wild type HIV1 NL4-3 reverse transcriptase

# Smiles repr, Ratio EC50
records = [
    ("Cc1cc(/C=C/C#N)cc(C)c1Oc1cc(Nc2ccc(C#N)cc2)c(N)cc1C(=O)N1CC1", 5),
    ("COCCOC(=O)c1cc(N)c(Nc2ccc(C#N)cc2)cc1Oc1c(C)cc(/C=C/C#N)cc1C", 6.3),
    ("Cc1cc(/C=C/C#N)cc(C)c1Oc1cc(Nc2ccc(C#N)cc2)c(N)cc1C(=O)OCCC#N", 4.1),
    ("Cc1cc(/C=C/C#N)cc(C)c1Oc1cc(Nc2ccc(C#N)cc2)c(N)cc1C(=O)NCCCl", 5.2),
]

---

# Measurement description: Aqueous solubility of the compound in phosphate buffer at pH 7.4 after 4 hrs by HPLC-UV analysis
# Format: physicochemical
As shown below, each of these compounds has a reported solubility at 4 h value.
Property label: solubility at 4 h

# Smiles repr, Result
measured = [
    ("Cc1cc(/C=C/C#N)cc(C)c1Oc1cc(Nc2ccc(C#N)cc2)c(N)cc1C(=O)NCCCl", "1.59 µg/mL"),
    ("Cc1cc(/C=C/C#N)cc(C)c1Oc1cc(Nc2ccc(C#N)cc2)c(N)cc1C(=O)N1CC(F)(F)C1", "6.59 µg/mL"),
    ("COCCOC(=O)c1cc(N)c(Nc2ccc(C#N)cc2)cc1Oc1c(C)cc(/C=C/C#N)cc1C", "0.77 µg/mL"),
    ("Cc1cc(/C=C/C#N)cc(C)c1Oc1cc(Nc2ccc(C#N)cc2)c(N)cc1C(=O)N1CC1", "1.2 µg/mL"),
    ("Cc1cc(/C=C/C#N)cc(C)c1Oc1cc(Nc2ccc(C#N)cc2)c(N)cc1C(=O)NN", "2.4 µg/mL"),
    ("Cc1cc(/C=C/C#N)cc(C)c1Oc1cc(Nc2ccc(C#N)cc2)c(N)cc1C(=O)NCCCO", "1.01 µg/mL"),
    ("Cc1cc(/C=C/C#N)cc(C)c1Oc1cc(Nc2ccc(C#N)cc2)c(N)cc1C(=O)OCCC#N", "0.36 µg/mL"),
]

---

As shown below, each of these molecules has a reported t1/2 value.
# Test system: Liver
# Measurement description: Half life in human liver microsomes at 1 uM pretreated up to 45 mins followed by NADPH addition by LC/MS/MS analysis
# Type: ADME, microsome
# Study conditions: microsomes, 1 µM
Property label: t1/2

# Smiles repr, Result
data = [
    ("Cc1cc(/C=C/C#N)cc(C)c1Oc1cc(Nc2ccc(C#N)cc2)c(N)cc1C(=O)OCCC#N", "0.283 h"),
    ("Cc1cc(/C=C/C#N)cc(C)c1Oc1cc(Nc2ccc(C#N)cc2)c(N)cc1C(=O)N1CC1", "2.63 h"),
    ("Cc1cc(/C=C/C#N)cc(C)c1Nc1ccnc(Nc2ccc(C#N)cc2)n1", "1.8 h"),
    ("Cc1cc(/C=C/C#N)cc(C)c1Oc1cc(Nc2ccc(C#N)cc2)c(N)cc1C(N)=O", "1.5 h"),
    ("COCCOC(=O)c1cc(N)c(Nc2ccc(C#N)cc2)cc1Oc1c(C)cc(/C=C/C#N)cc1C", "0.317 h"),
    ("Cc1cc(/C=C/C#N)cc(C)c1Oc1cc(Nc2ccc(C#N)cc2)c(N)cc1C(=O)NCCCl", "1.02 h"),
    ("Cc1cc(/C=C/C#N)cc(C)c1Oc1cc(Nc2ccc(C#N)cc2)c(N)cc1C(=O)NN", "0.6 h"),
]

---

# System: Liver
# Measurement description: Half life in human liver S9 fractions at 1 uM measured pretreated up to 45 mins followed by NADPH addition by LC/MS/MS analysis
# Type: ADME, tissue-based
# Study conditions: s9, 1 µM
Please note: t1/2 exactly at 0.7 h is n. Only values below 0.7 h get y.

# Smiles repr, Assigned class
measured = [
    ("Cc1cc(/C=C/C#N)cc(C)c1Nc1ccnc(Nc2ccc(C#N)cc2)n1", "n"),
    ("Cc1cc(/C=C/C#N)cc(C)c1Oc1cc(Nc2ccc(C#N)cc2)c(N)cc1C(=O)NN", "y"),
    ("COCCOC(=O)c1cc(N)c(Nc2ccc(C#N)cc2)cc1Oc1c(C)cc(/C=C/C#N)cc1C", "y"),
    ("Cc1cc(/C=C/C#N)cc(C)c1Oc1cc(Nc2ccc(C#N)cc2)c(N)cc1C(=O)NCCCl", "n"),
    ("Cc1cc(/C=C/C#N)cc(C)c1Oc1cc(Nc2ccc(C#N)cc2)c(N)cc1C(N)=O", "n"),
    ("Cc1cc(/C=C/C#N)cc(C)c1Oc1cc(Nc2ccc(C#N)cc2)c(N)cc1C(=O)OCCC#N", "y"),
    ("Cc1cc(/C=C/C#N)cc(C)c1Oc1cc(Nc2ccc(C#N)cc2)c(N)cc1C(=O)N1CC1", "n"),
]

---

# System: Human immunodeficiency virus 1
# Measurement description: Fold resistance, ratio of EC50 for rilpivirine-resistant HIV1 NL4-3 reverse transcriptase E138K mutant to EC50 for wild type HIV1 NL4-3 reverse transcriptase

# Smiles repr, Ratio EC50
rows = [
    ("Cc1cc(/C=C/C#N)cc(C)c1Oc1cc(Nc2ccc(C#N)cc2)c(N)cc1C(=O)NCCCO", 0.9),
    ("Cc1cc(/C=C/C#N)cc(C)c1Oc1cc(Nc2ccc(C#N)cc2)c(N)cc1C(=O)OCCC#N", 2.4),
    ("Cc1cc(/C=C/C#N)cc(C)c1Oc1cc(Nc2ccc(C#N)cc2)c(N)cc1C(=O)N1CC1", 2.6),
    ("COCCOC(=O)c1cc(N)c(Nc2ccc(C#N)cc2)cc1Oc1c(C)cc(/C=C/C#N)cc1C", 2.9),
    ("Cc1cc(/C=C/C#N)cc(C)c1Oc1cc(Nc2ccc(C#N)cc2)c(N)cc1C(=O)NCCCl", 2.6),
]

---

As shown below, each of these compounds has a reported t1/2 value.
# System: Plasma
# Measurement description: Half life in human plasma at 10 ug/ml by LC/MS/MS analysis
# Format: ADME, cell-free
Property label: t1/2 (h)

# Smiles repr, Tested on, Property label, Value units, Quantitative result
records = [
    ("Cc1cc(/C=C/C#N)cc(C)c1Oc1cc(Nc2ccc(C#N)cc2)c(N)cc1C(=O)NCCCl", "Plasma", "t1/2", "h", 8),
    ("Cc1cc(/C=C/C#N)cc(C)c1Oc1cc(Nc2ccc(C#N)cc2)c(N)cc1C(N)=O", "Plasma", "t1/2", "h", 65),
    ("Cc1cc(/C=C/C#N)cc(C)c1Oc1cc(Nc2ccc(C#N)cc2)c(N)cc1C(=O)N1CC1", "Plasma", "t1/2", "h", 12),
    ("Cc1cc(/C=C/C#N)cc(C)c1Oc1cc(Nc2ccc(C#N)cc2)c(N)cc1C(=O)NN", "Plasma", "t1/2", "h", 8),
    ("Cc1cc(/C=C/C#N)cc(C)c1Oc1cc(Nc2ccc(C#N)cc2)c(N)cc1C(=O)OCCC#N", "Plasma", "t1/2", "h", 32),
    ("COCCOC(=O)c1cc(N)c(Nc2ccc(C#N)cc2)cc1Oc1c(C)cc(/C=C/C#N)cc1C", "Plasma", "t1/2", "h", 62),
    ("Cc1cc(/C=C/C#N)cc(C)c1Nc1ccnc(Nc2ccc(C#N)cc2)n1", "Plasma", "t1/2", "h", 92),
]

---

# System: TZM
# Measurement description: Cytotoxicity against human TZM-bl cells infected with HIV1 NL4-3
# Assay type: cell-based
# Study conditions: tzm
Property label: CC50

# Molecule, Property label, Result
measured = [
    ("Cc1cc(/C=C/C#N)cc(C)c1Oc1cc(Nc2ccc(C#N)cc2)c(N)cc1C(=O)OCCC#N", "CC50", "> 210 nM"),
    ("Cc1cc(/C=C/C#N)cc(C)c1Oc1cc(Nc2ccc(C#N)cc2)c(N)cc1C(=O)N1CC1", "CC50", "> 223 nM"),
    ("COCCOC(=O)c1cc(N)c(Nc2ccc(C#N)cc2)cc1Oc1c(C)cc(/C=C/C#N)cc1C", "CC50", "> 207 nM"),
    ("Cc1cc(/C=C/C#N)cc(C)c1Oc1cc(Nc2ccc(C#N)cc2)c(N)cc1C(=O)NCCCl", "CC50", "> 206 nM"),
    ("Cc1cc(/C=C/C#N)cc(C)c1Oc1cc(Nc2ccc(C#N)cc2)c(N)cc1C(=O)NCCCO", "CC50", "> 208 nM"),
    ("Cc1cc(/C=C/C#N)cc(C)c1Nc1ccnc(Nc2ccc(C#N)cc2)n1 [RILPIVIRINE]", "CC50", "> 273 nM"),
    ("Cc1cc(/C=C/C#N)cc(C)c1Oc1cc(Nc2ccc(C#N)cc2)c(N)cc1C(=O)NN", "CC50", "> 228 nM"),
]
